// provenance: the RNAGym collection of RNA variant scans (doi:10.1073/pnas.2313332121)

Catalogue of variants with associated polymerase ribozyme fitness (log ratio)
B1: TPR t1 (parent)
chain: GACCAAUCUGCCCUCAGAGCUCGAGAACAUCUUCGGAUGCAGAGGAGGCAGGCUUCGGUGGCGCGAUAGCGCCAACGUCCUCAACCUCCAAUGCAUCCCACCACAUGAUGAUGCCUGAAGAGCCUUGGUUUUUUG

Variants of: B1
protocol.description: polymerase ribozyme fitness, log enrichment relative to wild type (log ratio); higher = more active; in vitro selection for triplet polymerase activity
measured.quantity: polymerase ribozyme fitness (log ratio)

{"mutations": "C8U G42U A50U", "measured.quantity": "polymerase ribozyme fitness (log ratio)", "readout.number": -3.49}
{"mutations": "C85A C102U A121U C124U", "measured.quantity": "polymerase ribozyme fitness (log ratio)", "readout.number": -1.07}
{"mutations": "C4A C13A G17A C22U A27G A46C G52C", "measured.quantity": "polymerase ribozyme fitness (log ratio)", "readout.number": -6.56}
{"mutations": "A5U C88G G120C", "measured.quantity": "polymerase ribozyme fitness (log ratio)", "readout.number": 0.286}
{"mutations": "C8U U96G G110U", "measured.quantity": "polymerase ribozyme fitness (log ratio)", "readout.number": -2.02}
{"mutations": "C62A U130G U133A", "measured.quantity": "polymerase ribozyme fitness (log ratio)", "readout.number": -1.17}
{"mutations": "C4G C12A U87G C115U", "measured.quantity": "polymerase ribozyme fitness (log ratio)", "readout.number": -3.74}
{"mutations": "G36C C72G", "measured.quantity": "polymerase ribozyme fitness (log ratio)", "readout.number": -2.37}
{"mutations": "U9G G52A U112C", "measured.quantity": "polymerase ribozyme fitness (log ratio)", "readout.number": 1.21}
{"mutations": "G57A U78C", "measured.quantity": "polymerase ribozyme fitness (log ratio)", "readout.number": -1.27}
{"mutations": "G23U C73G", "measured.quantity": "polymerase ribozyme fitness (log ratio)", "readout.number": -4.76}
{"mutations": "C15U C99U C102A G113U A118G", "measured.quantity": "polymerase ribozyme fitness (log ratio)", "readout.number": -7.09}
{"mutations": "A24G C53U C62U C89U G113A", "measured.quantity": "polymerase ribozyme fitness (log ratio)", "readout.number": -5.19}
{"mutations": "A74C A84U", "measured.quantity": "polymerase ribozyme fitness (log ratio)", "readout.number": -0.261}
{"mutations": "A6U C22A A43C C79G C97U", "measured.quantity": "polymerase ribozyme fitness (log ratio)", "readout.number": -8.2}
{"mutations": "G47C A111U", "measured.quantity": "polymerase ribozyme fitness (log ratio)", "readout.number": -4.54}
{"mutations": "G47A C49A C124U", "measured.quantity": "polymerase ribozyme fitness (log ratio)", "readout.number": 0.655}
{"mutations": "A46U U55A G69A U125A", "measured.quantity": "polymerase ribozyme fitness (log ratio)", "readout.number": -4.29}
{"mutations": "G42A A50U C73A C123U", "measured.quantity": "polymerase ribozyme fitness (log ratio)", "readout.number": -2.52}
{"mutations": "G45C G47U A50G G57U", "measured.quantity": "polymerase ribozyme fitness (log ratio)", "readout.number": -3.62}
{"mutations": "C72G U126G", "measured.quantity": "polymerase ribozyme fitness (log ratio)", "readout.number": -2.09}
{"mutations": "G61C U129A", "measured.quantity": "polymerase ribozyme fitness (log ratio)", "readout.number": -3.33}
